# System: HepG2
# test.details: MTT antiproliferative assay
# Format: cell-based
# experimental.setup: Homo sapiens, 24 h incubation, hepatocellular carcinoma

{"columns": ["structure.smiles", "target.under.test", "IC50"],
 "data": [
  ["O=C(N/N=C/c1ccccc1[N+](=O)[O-])c1ccc(O)cc1O", "HepG2", "> 500 µM"],
  ["O=C(N/N=C/c1ccc([N+](=O)[O-])cc1)c1ccc(O)cc1O", "HepG2", "7.81 µM"],
  ["O=C(N/N=C/c1ccccc1F)c1ccc(O)cc1O", "HepG2", "> 500 µM"],
  ["O=C(N/N=C/c1cccc([N+](=O)[O-])c1)c1ccc(O)cc1O", "HepG2", "> 500 µM"]
]}

----------
# maps each entry to its MFC/MIC
# Tested on: Candida glabrata ATCC 90030
# test.details: Broth microdilution MIC/MFC
# Format: cell-based
measured.metric: MFC/MIC

{"columns": ["compound", "measured.metric", "result.comparator", "measured.result"],
 "data": [
  ["O=C(N/N=C/c1ccccc1[N+](=O)[O-])c1ccc(O)cc1O", "MFC/MIC", ">", 2],
  ["C[C@@H]1[C@H](O)[C@@H](C)/C=C/C=C/CC/C=C/C=C/C=C/C=C/C(O[C@H]2O[C@H](C)[C@@H](O)[C@H](N)[C@@H]2O)CC2O[C@](O)(CC(O)C(O)CCC(O)CC(O)CC(O)CC(=O)O[C@H]1C)CC(O)C2C(=O)O (some centres unmarked) [NY, nystatin, reference compound]", "MFC/MIC", "=", 2],
  ["O=C(N/N=C/c1cc(I)cc(I)c1O)c1ccc(O)cc1O", "MFC/MIC", ">", 1],
  ["CCCc1ccc(/C=N/NC(=O)c2ccc(O)cc2O)cc1", "MFC/MIC", ">", 1],
  ["Cc1cccc(/C=N/NC(=O)c2ccc(O)cc2O)c1", "MFC/MIC", "=", 2]
]}

----------
# maps each entry to its MBC/MIC
# System: Salmonella typhimurium ATCC 14028
# test.details: Broth microdilution MIC/MBC
# Assay type: cell-based
measured.metric: MBC/MIC

{"columns": ["compound", "measured.result"],
 "data": [
  ["O=C(O)c1cn(C2CC2)c2cc(N3CCNCC3)c(F)cc2c1=O [CIP, ciprofloxacin, reference compound]", 1],
  ["O=C(N/N=C/c1cc(Br)c(O)c(Br)c1)c1ccc(O)cc1O", "> 1"],
  ["O=C(N/N=C/c1cc(I)cc(I)c1O)c1ccc(O)cc1O", "> 1"],
  ["O=C(N/N=C/c1ccccc1[N+](=O)[O-])c1ccc(O)cc1O", "> 1"],
  ["Cc1cccc(/C=N/NC(=O)c2ccc(O)cc2O)c1", "> 1"],
  ["CCCc1ccc(/C=N/NC(=O)c2ccc(O)cc2O)cc1", "> 1"]
]}

----------
# Test system: Klebsiella pneumoniae ATCC 13883
# test.details: Broth microdilution MIC/MBC
# Format: cell-based
# experimental.setup: ATCC13883

{"columns": ["structure.smiles", "target.under.test", "MIC"],
 "data": [
  ["Cc1ccc(/C=N/NC(=O)c2ccc(O)cc2O)cc1", "Klebsiella pneumoniae ATCC 13883", "> 1000 µg/mL"],
  ["O=C(N/N=C/c1cc(Br)c(O)c(Br)c1)c1ccc(O)cc1O", "Klebsiella pneumoniae ATCC 13883", "1000 µg/mL"],
  ["COc1cc(/C=N/NC(=O)c2ccc(O)cc2O)cc(I)c1O", "Klebsiella pneumoniae ATCC 13883", "> 1000 µg/mL"],
  ["COc1ccc(/C=N/NC(=O)c2ccc(O)cc2O)cc1Br", "Klebsiella pneumoniae ATCC 13883", "> 1000 µg/mL"],
  ["CCOc1cc(/C=N/NC(=O)c2ccc(O)cc2O)ccc1OC", "Klebsiella pneumoniae ATCC 13883", "> 1000 µg/mL"],
  ["COc1ccc(/C=N/NC(=O)c2ccc(O)cc2O)c(Br)c1O", "Klebsiella pneumoniae ATCC 13883", "> 1000 µg/mL"],
  ["CCCCOc1ccc(/C=N/NC(=O)c2ccc(O)cc2O)cc1", "Klebsiella pneumoniae ATCC 13883", "> 1000 µg/mL"],
  ["O=C(N/N=C/c1cc(I)cc(I)c1O)c1ccc(O)cc1O", "Klebsiella pneumoniae ATCC 13883", "500 µg/mL"]
]}

----------
# Tested on: Candida albicans ATCC 2091
# test.details: Broth microdilution MIC/MFC
# Format: cell-based
measured.metric: MFC/MIC

{"columns": ["compound", "measured.result"],
 "data": [
  ["C[C@@H]1[C@H](O)[C@@H](C)/C=C/C=C/CC/C=C/C=C/C=C/C=C/C(O[C@H]2O[C@H](C)[C@@H](O)[C@H](N)[C@@H]2O)CC2O[C@](O)(CC(O)C(O)CCC(O)CC(O)CC(O)CC(=O)O[C@H]1C)CC(O)C2C(=O)O (some centres unmarked) [NY, nystatin, reference compound]", 1],
  ["O=C(N/N=C/c1cc(Br)c(O)c(Br)c1)c1ccc(O)cc1O", "> 1"],
  ["CCCOc1ccc(/C=N/NC(=O)c2ccc(O)cc2O)cc1", "> 2"],
  ["O=C(N/N=C/c1ccccc1Br)c1ccc(O)cc1O", "> 1"],
  ["CCOc1ccc(/C=N/NC(=O)c2ccc(O)cc2O)cc1", "> 2"],
  ["O=C(N/N=C/c1ccccc1Cl)c1ccc(O)cc1O", "> 1"],
  ["CCCCOc1ccc(/C=N/NC(=O)c2ccc(O)cc2O)cc1", "> 2"],
  ["O=C(N/N=C/c1ccccc1F)c1ccc(O)cc1O", "> 1"]
]}

----------
{"columns": ["compound", "endpoint.unit", "melting point"],
 "data": [
  ["COc1ccc(/C=N/NC(=O)c2ccc(O)cc2O)cc1Br [Compound 10]", "°C", 260],
  ["O=C(N/N=C/c1ccc(O)c(Br)c1)c1ccc(O)cc1O [Compound 11]", "°C", 232],
  ["COc1ccc(/C=N/NC(=O)c2ccc(O)cc2O)c(Br)c1O [Compound 15]", "°C", 244],
  ["CCCCOc1ccc(/C=N/NC(=O)c2ccc(O)cc2O)cc1 [Compound 7]", "°C", 246]
]}

----------
Quick note: these are MIC numbers for system: Staphylococcus aureus ATCC 29213
measured.metric: MIC

{"columns": ["structure.smiles", "measured.result"],
 "data": [
  ["Cc1cccc(/C=N/NC(=O)c2ccc(O)cc2O)c1", "250 µg/mL"],
  ["CCOc1ccc(/C=N/NC(=O)c2ccc(O)cc2O)cc1", "1000 µg/mL"],
  ["O=C(N/N=C/c1ccc(O)c(Br)c1)c1ccc(O)cc1O", "250 µg/mL"],
  ["CCCCOc1ccc(/C=N/NC(=O)c2ccc(O)cc2O)cc1", "1000 µg/mL"],
  ["COc1ccc(/C=N/NC(=O)c2ccc(O)cc2O)c(Br)c1O", "> 1000 µg/mL"],
  ["O=C(N/N=C/c1ccc([N+](=O)[O-])cc1)c1ccc(O)cc1O", "500 µg/mL"],
  ["O=C(N/N=C/c1ccccc1Br)c1ccc(O)cc1O", "> 1000 µg/mL"],
  ["O=C(N/N=C/c1ccccc1[N+](=O)[O-])c1ccc(O)cc1O", "1000 µg/mL"],
  ["CCCOc1ccc(/C=N/NC(=O)c2ccc(O)cc2O)cc1", "1000 µg/mL"],
  ["O=C(N/N=C/c1cccc([N+](=O)[O-])c1)c1ccc(O)cc1O", "> 1000 µg/mL"],
  ["COc1ccc(/C=N/NC(=O)c2ccc(O)cc2O)cc1Cl", "31.2 µg/mL"],
  ["COc1ccc(/C=N/NC(=O)c2ccc(O)cc2O)cc1Br", "15.6 µg/mL"],
  ["CCOc1cc(/C=N/NC(=O)c2ccc(O)cc2O)ccc1OC", "> 1000 µg/mL"],
  ["O=C(N/N=C/c1ccccc1Cl)c1ccc(O)cc1O", "> 1000 µg/mL"],
  ["COc1cc(/C=N/NC(=O)c2ccc(O)cc2O)cc(I)c1O", "1000 µg/mL"],
  ["O=C(N/N=C/c1cc(I)cc(I)c1O)c1ccc(O)cc1O", "7.81 µg/mL"],
  ["Cc1ccccc1/C=N/NC(=O)c1ccc(O)cc1O", "1000 µg/mL"],
  ["O=C(N/N=C/c1cc(Br)c(O)c(Br)c1)c1ccc(O)cc1O", "31.2 µg/mL"],
  ["O=C(N/N=C/c1ccccc1F)c1ccc(O)cc1O", "> 1000 µg/mL"],
  ["Cc1ccc(/C=N/NC(=O)c2ccc(O)cc2O)cc1", "> 1000 µg/mL"],
  ["CCCc1ccc(/C=N/NC(=O)c2ccc(O)cc2O)cc1", "1000 µg/mL"]
]}
